So I've got a bunch of compounds here, and I need their relative viability values.
System: RERF-LC-KJ
Assay: relative viability (nuclei count vs DMSO), 5 days (fraction); higher = more cells survive
Details: first compound 2.53 µM
Answers are plain numbers.

Guide cases for relative viability, answers given:
Cc1cnc(-c2cnc(NCCNc3ccc(C#N)cn3)nc2-c2ccc(Cl)cc2Cl)[nH]1 + C[C@@H](Oc1cc(-c2cnn(C3CCNCC3)c2)cnc1N)c1c(Cl)ccc(F)c1Cl [Crizotinib] (partner 1 µM) = 0.846
O=c1[nH]c2ccccc2n1C1CCN(CCCC(c2ccc(F)cc2)c2ccc(F)cc2)CC1 [Pimozide] + Cc1nc(NC(=O)N2CCC[C@H]2C(N)=O)sc1-c1ccnc(C(C)(C)C(F)(F)F)c1 [Alpelisib] (partner 2 µM) = 0.841
Cc1cnc(-c2cnc(NCCNc3ccc(C#N)cn3)nc2-c2ccc(Cl)cc2Cl)[nH]1 + CC1(C)CCC(c2ccc(Cl)cc2)=C(CN2CCN(c3ccc(C(=O)NS(=O)(=O)c4ccc(N[C@H](CCN5CCOCC5)CSc5ccccc5)c(S(=O)(=O)C(F)(F)F)c4)cc3)CC2)C1 [Navitoclax] (partner 0.5 µM) = 0.776
Cc1cnc(-c2cnc(NCCNc3ccc(C#N)cn3)nc2-c2ccc(Cl)cc2Cl)[nH]1 + CCNC(=O)c1noc(-c2cc(C(C)C)c(O)cc2O)c1-c1ccc(CN2CCOCC2)cc1 [Luminespib] (partner 0.01 µM) = 1.32
O=c1[nH]c2ccccc2n1C1CCN(CCCC(c2ccc(F)cc2)c2ccc(F)cc2)CC1 [Pimozide] + CCNC(=O)c1noc(-c2cc(C(C)C)c(O)cc2O)c1-c1ccc(CN2CCOCC2)cc1 [Luminespib] (partner 0.01 µM) = 1.12

Consider the record given below.
# input Identify measured relative viability corresponding to Cc1cnc(-c2cnc(NCCNc3ccc(C#N)cn3)nc2-c2ccc(Cl)cc2Cl)[nH]1 + COc1cccc2cc(-c3nc([C@H]4CC[C@H](C(=O)O)CC4)n4ncnc(N)c34)[nH]c12 [OSI-027] (partner 0.5 µM)
# output 0.697
